- ASSAY PROTOCOL: MPA pharmacokinetics in renal transplant patients on MMF (plasma HPLC-UV, Bayesian estimation of AUC)
- Assay type: in vivo, human
- MEASUREMENT CONTEXT: human, plasma, MPA AUC(0–12), mean ± SD, CsA + MMF; MMF 1000 mg/day; CsA 120–180 mg/day
REPORTED ENDPOINT: AUC(0-t) (ng·h/mL)

MOLECULE | REPORTED ENDPOINT | MEASUREMENT UNIT | REPORTED RESULT
COc1c(C)c2c(c(O)c1C/C=C(\C)CCC(=O)O)C(=O)OC2 [MPA, mycophenolic acid] | AUC(0-t) | ng·h/mL | 28100

====

- ASSAY PROTOCOL: MPA pharmacokinetics in renal transplant patients on MMF (plasma HPLC-UV, Bayesian estimation of AUC)
- Assay type: in vivo, human
- MEASUREMENT CONTEXT: human, plasma, MPA Cmax, mean ± SD (range), High-dose MMF group, 3000 mg/day; CsA group

ITEM SMILES | MEASUREMENT UNIT | Cmax
COc1c(C)c2c(c(O)c1C/C=C(\C)CCC(=O)O)C(=O)OC2 | µg/mL | 21

====

- ASSAY PROTOCOL: MPA pharmacokinetics in renal transplant patients on MMF (plasma HPLC-UV, Bayesian estimation of AUC)
- Format: in vivo, human
- MEASUREMENT CONTEXT: human, plasma, MPA Cmax, mean ± SD (range), EVR + MMF group, all MMF doses (n = 17)

ITEM SMILES | Cmax (ng/mL)
COc1c(C)c2c(c(O)c1C/C=C(\C)CCC(=O)O)C(=O)OC2 | 14300

====

- ASSAY PROTOCOL: MPA pharmacokinetics in renal transplant patients on MMF (plasma HPLC-UV, Bayesian estimation of AUC)
- Type: in vivo, human
- MEASUREMENT CONTEXT: human, plasma, MPA AUC(0–12), mean ± SD, CsA + MMF; MMF 3000 mg/day; CsA 120–180 mg/day

ITEM SMILES | MEASUREMENT UNIT | AUC(0-t)
COc1c(C)c2c(c(O)c1C/C=C(\C)CCC(=O)O)C(=O)OC2 | ng·h/mL | 36200

====

- ASSAY PROTOCOL: MPA pharmacokinetics in renal transplant patients on MMF (plasma HPLC-UV, Bayesian estimation of AUC)
- Format: in vivo, human
- MEASUREMENT CONTEXT: human, plasma, MPA Cmax, mean ± SD (range), CsA + MMF group, all MMF doses (n = 83)
- From the text: Anonymized medical records of 404 patients receiving immunosuppressant therapy after renal transplantation hospitalized at Limoges University Hospital (France) during the study period from 2011 to 2012 were reviewed. […] The patients were excluded if they received immunosuppression with other medicaments and underwent transplantation of other organs. All patients received prednisolone orally by standard hospital practice. […]

ITEM SMILES | Cmax, ng/mL
COc1c(C)c2c(c(O)c1C/C=C(\C)CCC(=O)O)C(=O)OC2 | 17600

====

- ASSAY PROTOCOL: MPA pharmacokinetics in renal transplant patients on MMF (plasma HPLC-UV, Bayesian estimation of AUC)
- Assay type: in vivo, human
- MEASUREMENT CONTEXT: human, plasma, MPA Cmax, mean ± SD, CsA + MMF; MMF 2000 mg/day; CsA 120–180 mg/day
REPORTED ENDPOINT: Cmax (ng/mL)

MOLECULE | REPORTED ENDPOINT | MEASUREMENT UNIT | REPORTED RESULT
COc1c(C)c2c(c(O)c1C/C=C(\C)CCC(=O)O)C(=O)OC2 [MPA, mycophenolic acid] | Cmax | ng/mL | 13000

====

- ASSAY PROTOCOL: MPA pharmacokinetics in renal transplant patients on MMF (plasma HPLC-UV, Bayesian estimation of AUC)
- Format: in vivo, human
- MEASUREMENT CONTEXT: human, plasma, MPA Cmax, mean ± SD, CsA + MMF; MMF 1000 mg/day; CsA 180–240 mg/day

COMPOUND | MEASUREMENT UNIT | Cmax
COc1c(C)c2c(c(O)c1C/C=C(\C)CCC(=O)O)C(=O)OC2 [MPA, mycophenolic acid] | ng/mL | 22800

====

- ASSAY PROTOCOL: MPA pharmacokinetics in renal transplant patients on MMF (plasma HPLC-UV, Bayesian estimation of AUC)
- Type: in vivo, human
- MEASUREMENT CONTEXT: human, plasma, MPA AUC(0–12), mean ± SD (range), Medium-dose MMF group, 2000 mg/day; EVR group

ITEM SMILES | AUC(0-t) / ng·h/mL
COc1c(C)c2c(c(O)c1C/C=C(\C)CCC(=O)O)C(=O)OC2 | 68700

====

- ASSAY PROTOCOL: MPA pharmacokinetics in renal transplant patients on MMF (plasma HPLC-UV, Bayesian estimation of AUC)
- Type: in vivo, human
- MEASUREMENT CONTEXT: human, plasma, MPA AUC(0–12), mean ± SD, CsA + MMF; MMF 3000 mg/day; CsA 180–240 mg/day

ITEM SMILES | MEASUREMENT UNIT | AUC(0-t)
COc1c(C)c2c(c(O)c1C/C=C(\C)CCC(=O)O)C(=O)OC2 | ng·h/mL | 43400

====

- ASSAY PROTOCOL: MPA pharmacokinetics in renal transplant patients on MMF (plasma HPLC-UV, Bayesian estimation of AUC)
- Assay type: in vivo, human
- MEASUREMENT CONTEXT: human, plasma, MPA AUC(0–12), mean ± SD, CsA + MMF; MMF 2000 mg/day; CsA 180–240 mg/day
REPORTED ENDPOINT: AUC(0-t) (ng·h/mL)

MOLECULE | REPORTED ENDPOINT | REPORTED RESULT
COc1c(C)c2c(c(O)c1C/C=C(\C)CCC(=O)O)C(=O)OC2 [MPA, mycophenolic acid] | AUC(0-t) | 41800

====

- ASSAY PROTOCOL: MPA pharmacokinetics in renal transplant patients on MMF (plasma HPLC-UV, Bayesian estimation of AUC)
- Assay type: in vivo, human
- MEASUREMENT CONTEXT: human, plasma, MPA Cmax, mean ± SD, CsA + MMF; MMF 2000 mg/day; CsA 240–300 mg/day
REPORTED ENDPOINT: Cmax (ng/mL)

ITEM SMILES | REPORTED RESULT
COc1c(C)c2c(c(O)c1C/C=C(\C)CCC(=O)O)C(=O)OC2 | 22800

====

- ASSAY PROTOCOL: MPA pharmacokinetics in renal transplant patients on MMF (plasma HPLC-UV, Bayesian estimation of AUC)
- Type: in vivo, human
- MEASUREMENT CONTEXT: human, plasma, MPA AUC(0–12), mean ± SD (range), CsA + MMF group, all MMF doses (n = 83)

ITEM SMILES | MEASUREMENT UNIT | AUC(0-t)
COc1c(C)c2c(c(O)c1C/C=C(\C)CCC(=O)O)C(=O)OC2 | ng·h/mL | 37900

====

- ASSAY PROTOCOL: MPA pharmacokinetics in renal transplant patients on MMF (plasma HPLC-UV, Bayesian estimation of AUC)
- Type: in vivo, human
- MEASUREMENT CONTEXT: human, plasma, MPA AUC(0–12), mean ± SD (range), Low-dose MMF group, 1000 mg/day; CsA group

ITEM SMILES | AUC(0-t) (ng·h/mL)
COc1c(C)c2c(c(O)c1C/C=C(\C)CCC(=O)O)C(=O)OC2 | 30600

====

- ASSAY PROTOCOL: MPA pharmacokinetics in renal transplant patients on MMF (plasma HPLC-UV, Bayesian estimation of AUC)
- Format: in vivo, human
- MEASUREMENT CONTEXT: human, plasma, MPA Cmax, mean ± SD (range), Low-dose MMF group, 1000 mg/day; EVR group

MOLECULE | MEASUREMENT UNIT | Cmax
COc1c(C)c2c(c(O)c1C/C=C(\C)CCC(=O)O)C(=O)OC2 [MPA, mycophenolic acid] | µg/mL | 10.8

====

- ASSAY PROTOCOL: MPA pharmacokinetics in renal transplant patients on MMF (plasma HPLC-UV, Bayesian estimation of AUC)
- Assay type: in vivo, human
- MEASUREMENT CONTEXT: human, plasma, MPA AUC(0–12), mean ± SD, CsA + MMF; MMF 2000 mg/day; CsA 240–300 mg/day

ITEM SMILES | AUC(0-t)
COc1c(C)c2c(c(O)c1C/C=C(\C)CCC(=O)O)C(=O)OC2 | 43 µg·h/mL

====

- ASSAY PROTOCOL: MPA pharmacokinetics in renal transplant patients on MMF (plasma HPLC-UV, Bayesian estimation of AUC)
- Type: in vivo, human
- MEASUREMENT CONTEXT: human, plasma, MPA Cmax, mean ± SD, CsA + MMF; MMF 3000 mg/day; CsA 180–240 mg/day
REPORTED ENDPOINT: Cmax

COMPOUND | REPORTED ENDPOINT | REPORTED RESULT
COc1c(C)c2c(c(O)c1C/C=C(\C)CCC(=O)O)C(=O)OC2 [MPA, mycophenolic acid] | Cmax | 22800 ng/mL
